- experimental_target: GST-Aq-NF-kB (Amphimedon queenslandica, UniProt A9Y5G7 2-389)
- Sequence: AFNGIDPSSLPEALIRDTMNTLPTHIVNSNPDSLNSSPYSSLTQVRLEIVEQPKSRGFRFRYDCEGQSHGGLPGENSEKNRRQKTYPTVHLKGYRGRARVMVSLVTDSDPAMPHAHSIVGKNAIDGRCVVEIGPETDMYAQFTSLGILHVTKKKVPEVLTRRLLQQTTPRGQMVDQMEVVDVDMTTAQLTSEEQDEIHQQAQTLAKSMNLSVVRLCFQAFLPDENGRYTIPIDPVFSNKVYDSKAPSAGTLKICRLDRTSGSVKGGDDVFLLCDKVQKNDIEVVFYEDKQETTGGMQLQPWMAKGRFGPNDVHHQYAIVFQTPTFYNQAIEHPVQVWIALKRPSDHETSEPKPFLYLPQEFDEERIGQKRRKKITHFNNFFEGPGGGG
- test_description: protein-binding microarray (PBM); PBM: ~300 nM protein, 6 mM HEPES pH 7.8, 80 mM KCl, 0.5 mM EDTA, 0.5 mM EGTA, 6% glycerol, 35 ng/ul poly-dIdC, 1% milk, 1 h, room temperature; high values mean tight binding
- test_parameters: dsDNA, one strand shown
For each entry below, report its binding signal value.
Give bare numbers, in z-score.

Items follow; give binding signal for each.
1. CCGATTAACATCAGAGACTTCCCTGATGTTAATCGGGTCTTGATTCGCTTGACGCTGCTG
2. CCGATTAACATCACGTGCTTTCCTGATGTTAATCGGGTCTTGATTCGCTTGACGCTGCTG
3. CCGATTAACATCAAAGTCCCCCTTGATGTTAATCGGGTCTTGATTCGCTTGACGCTGCTG
4. CCGATTAACATCAGGGTAAAACCTGATGTTAATCGGGTCTTGATTCGCTTGACGCTGCTG
5. CCGATTAACATCAGGGGGAACACTGATGTTAATCGGGTCTTGATTCGCTTGACGCTGCTG

Result string:
[3.32, 1.36, 6.66, 6.02, 5.54]

----------
- experimental_target: GST-Co-NF-kB (Capsaspora owczarzaki, UniProt F1ARL5 200-546)
- Sequence: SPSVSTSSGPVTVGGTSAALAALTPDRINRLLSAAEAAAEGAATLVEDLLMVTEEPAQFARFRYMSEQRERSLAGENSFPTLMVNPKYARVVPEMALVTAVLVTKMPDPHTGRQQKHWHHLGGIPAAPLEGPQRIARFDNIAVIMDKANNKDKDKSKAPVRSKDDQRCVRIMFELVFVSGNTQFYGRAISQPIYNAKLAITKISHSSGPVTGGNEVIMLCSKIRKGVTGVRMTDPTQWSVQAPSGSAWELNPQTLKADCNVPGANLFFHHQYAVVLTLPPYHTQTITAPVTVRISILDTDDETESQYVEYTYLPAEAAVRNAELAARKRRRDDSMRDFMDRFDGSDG
- test_description: protein-binding microarray (PBM); PBM: ~300 nM protein, 6 mM HEPES pH 7.8, 80 mM KCl, 0.5 mM EDTA, 0.5 mM EGTA, 6% glycerol, 35 ng/ul poly-dIdC, 1% milk, 1 h, room temperature; Ap Aiptasia and Nv Nematostella (sea anemones) / Co Capsaspora / Aq Amphimedon (sponge) / Dm Drosophila / Hu human; RHD is the Rel homology domain; high values mean tight binding
- test_parameters: dsDNA, one strand shown
Binary classification by binding signal, with 8 z-score as an inclusive lower bound for criterion met; all other cases are criterion not met.

Consider the following illustrative entries.
| sequence_entry | class_assignment |
| --- | --- |
| CCGATTAACATCACGGGGGAAAATGATGTTAATCGGGTCTTGATTCGCTTGACGCTGCTG | criterion met |
| CCGATTAACATCAAATTCCCACTTGATGTTAATCGGGTCTTGATTCGCTTGACGCTGCTG | criterion not met |
| CCGATTAACATCAGGGGGGGCACTGATGTTAATCGGGTCTTGATTCGCTTGACGCTGCTG | criterion not met |

Kindly review the next sequence as well.
Query string: hey, is binding signal for this one >= 8 z-score? CCGATTAACATCAGTACTCCCCATGATGTTAATCGGGTCTTGATTCGCTTGACGCTGCTG
Result string: criterion not met
